target: HIV Env, isolate AC10.0.29 (HIV); experiment: cell-based or functional assay
Consider the following binders and their measured IC80 (µg/ml) with constrains readings.

Consider the worked cases shown below.
Binder | IC80 (µg/ml) with constrains
ePGDM9 (antibody, V domains shown) VH: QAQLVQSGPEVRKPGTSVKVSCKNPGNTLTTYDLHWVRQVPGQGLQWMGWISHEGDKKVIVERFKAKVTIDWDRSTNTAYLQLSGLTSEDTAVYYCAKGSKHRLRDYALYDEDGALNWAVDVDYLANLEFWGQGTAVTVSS VL: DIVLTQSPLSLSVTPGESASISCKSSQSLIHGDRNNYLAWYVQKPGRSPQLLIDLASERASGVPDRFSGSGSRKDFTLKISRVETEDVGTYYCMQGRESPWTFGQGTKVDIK | 0.298 µg/mL
PGDM1400 (antibody, V domains shown) VH: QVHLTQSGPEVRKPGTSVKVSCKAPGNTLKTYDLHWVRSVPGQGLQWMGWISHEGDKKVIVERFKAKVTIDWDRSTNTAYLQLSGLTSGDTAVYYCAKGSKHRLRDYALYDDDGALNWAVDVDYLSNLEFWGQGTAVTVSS VL: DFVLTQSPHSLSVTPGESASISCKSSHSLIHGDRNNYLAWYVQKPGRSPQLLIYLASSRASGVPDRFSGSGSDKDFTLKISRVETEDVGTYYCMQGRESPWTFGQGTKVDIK | 2.19 µg/mL
ePGDM5 (antibody, V domains shown) VH: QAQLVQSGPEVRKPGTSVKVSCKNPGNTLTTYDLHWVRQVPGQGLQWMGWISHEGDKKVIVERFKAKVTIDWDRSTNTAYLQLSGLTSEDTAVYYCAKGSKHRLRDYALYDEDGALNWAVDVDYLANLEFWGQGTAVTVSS VL: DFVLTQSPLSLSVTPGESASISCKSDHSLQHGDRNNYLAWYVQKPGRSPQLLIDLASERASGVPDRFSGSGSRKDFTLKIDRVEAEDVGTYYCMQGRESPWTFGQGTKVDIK | 1.1 µg/mL

The record that follows has no IC80 (µg/ml) with constrains shown yet.
IN: Retrieve IC80 (µg/ml) with constrains measured for ePGDM13 (antibody, V domains shown) VH: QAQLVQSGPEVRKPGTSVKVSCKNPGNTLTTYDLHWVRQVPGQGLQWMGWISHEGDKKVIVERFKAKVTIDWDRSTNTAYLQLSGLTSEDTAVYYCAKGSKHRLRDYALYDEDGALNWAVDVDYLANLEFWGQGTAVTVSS VL: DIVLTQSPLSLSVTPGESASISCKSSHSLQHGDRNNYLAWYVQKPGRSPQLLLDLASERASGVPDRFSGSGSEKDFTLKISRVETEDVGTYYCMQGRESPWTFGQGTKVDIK and print it.
OUT: 0.776 µg/mL
